# Test system: LoVo
# ASSAY_NAME: SRB colorimetric cell growth inhibition assay, LoVo
# Format: cell-based
# ASSAY_CONDITIONS: Homo sapiens, LoVo; GI=growth inhibition; read-out: GI50 LOVO
METRIC_NAME: GI50 (µM)
Numbers only, in µM.

Field: GI50. Fill in for each record below.
1. COc1cc(-c2c3c4cc(OC)c(OC(=O)[C@H](C)NC(=O)[C@H](C)N)cc4oc(=O)c3n3ccc4c(OC(=O)[C@H](C)NC(=O)[C@H](C)N)c(OC)c(OC)cc4c23)ccc1OC(=O)[C@H](C)NC(=O)[C@H](C)N
2. COc1cc(-c2c3c4cc(OC)c(OC(=O)[C@@H]5CCCN5)cc4oc(=O)c3n3ccc4cc(OC(=O)[C@@H]5CCCN5)c(OC)cc4c23)ccc1OC(=O)[C@@H]1CCCN1
3. COc1cc(-c2c3c4cc(OC)c(OC(=O)CCC5CCCCC5)cc4oc(=O)c3n3ccc4cc(OC(=O)CCC5CCCCC5)c(OC)cc4c23)ccc1OC(=O)CCC1CCCCC1
4. COc1cc(-c2c3c4cc(OC)c(OC(C)C)cc4oc(=O)c3n3ccc4c(OC(C)C)c(OC)c(OC)c(COS(C)(=O)=O)c4c23)ccc1OC(C)C

1: 0.345; 2: 0.535; 3: 1.83; 4: 13.1

Here "COc1cc2c(cc1O)oc(=O)c1c2c(-c2cccc([N+](=O)[O-])c2)c2c3cc(OC)c(O)cc3ccn21" was tested on LoVo, and its GI50 came to 2.41
